Entry source: patent US20170291905A1

measured_on: full-length human PRMT1 isoform 1 (GST-tagged) (Homo sapiens, UniProt Q99873)
Construct: GST-tagged PRMT1 was eluted with 50 mM Tris, 2 mM glutathione, pH 7.8, dialysed in buffer A and concentrated
Sequence (Q99873 with tags, fused parts or gaps): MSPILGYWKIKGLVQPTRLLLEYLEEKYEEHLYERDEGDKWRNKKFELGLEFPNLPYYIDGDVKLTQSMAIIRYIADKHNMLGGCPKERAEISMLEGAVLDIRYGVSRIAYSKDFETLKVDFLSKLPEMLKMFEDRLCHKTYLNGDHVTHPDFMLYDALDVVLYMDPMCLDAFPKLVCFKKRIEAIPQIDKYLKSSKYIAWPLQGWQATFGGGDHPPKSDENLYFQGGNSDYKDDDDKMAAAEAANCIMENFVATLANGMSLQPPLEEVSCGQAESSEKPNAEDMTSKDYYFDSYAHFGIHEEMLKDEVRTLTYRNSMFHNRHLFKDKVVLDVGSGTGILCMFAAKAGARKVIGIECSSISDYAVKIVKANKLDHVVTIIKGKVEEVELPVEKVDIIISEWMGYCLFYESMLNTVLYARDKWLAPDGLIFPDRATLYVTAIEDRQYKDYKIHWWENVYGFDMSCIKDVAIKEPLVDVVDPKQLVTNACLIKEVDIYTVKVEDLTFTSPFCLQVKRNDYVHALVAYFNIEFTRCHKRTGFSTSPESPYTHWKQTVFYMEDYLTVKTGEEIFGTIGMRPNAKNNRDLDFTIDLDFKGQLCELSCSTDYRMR
experimental_details: PRMT1 biochemical assay (3H-SAM Flashplate, histone H4 36-50 peptide)
setup_conditions: 0.5 nM PRMT1, 30 min preincubation, 20 nM peptide
Where a name gives a salt, the structure may show the parent alone.
The molecules listed here are annotated with their pIC50.
The scale used: pIC50 is minus the common logarithm of the concentration in molar units.

Solved cases (2 shown):
molecule: CNCCN(C)Cc1c[nH]nc1C1CCC(C)(C)[C@H](COCCCOC)C1 (some centres unmarked) [compound 30]
reported_endpoint: pIC50
recorded_measurement: 7.68

molecule: CNCCN(C)Cc1c[nH]nc1C1=CCC2(CC1)CC(C)(C)CO2 (centres unmarked) [compound 46]
reported_endpoint: pIC50
recorded_measurement: 7.70

Query :: Return reported pIC50; argument: CNCCN(C)Cc1c[nH]nc1[C@H]1CC[C@]2(CCCCO2)CC1 [compound 127, bistrifluoroacetic acid salt]
Result :: 8.13

Query :: Find the recorded pIC50 belonging to CNCCN(C)Cc1c[nH]nc1[C@H]1CC[C@@H](COCC(F)(F)F)CC1 [compound 23] and report it.
Result :: 7.29

Query :: What does the data say about its pIC50? Entry: CNCCN(C)Cc1c(C)[nH]nc1[C@H]1CC[C@]2(CC1)CC(C)(C)CO2 [compound 58]
Result :: 7.41

Query :: What pIC50 value was documented for this molecule, CNCCN(C)Cc1cncn1[C@H]1CC[C@@]2(CC1)CC(C)(C)CO2 [compound 76] ?
Result :: 7.84

Query :: Would you kindly share the measured pIC50 for CNCCN(C)Cc1c[nH]nc1[C@@H]1CC[C@@H](OCCCOC)C2(CCCC2)C1 (racemic) [compound 26] ?
Result :: 7.84
